target: CSF1R (human) (UniProt P07333); assay: KINOMEscan competition binding; settings: compound 10.0 µM
Sequence (P07333 whole entry, looked up): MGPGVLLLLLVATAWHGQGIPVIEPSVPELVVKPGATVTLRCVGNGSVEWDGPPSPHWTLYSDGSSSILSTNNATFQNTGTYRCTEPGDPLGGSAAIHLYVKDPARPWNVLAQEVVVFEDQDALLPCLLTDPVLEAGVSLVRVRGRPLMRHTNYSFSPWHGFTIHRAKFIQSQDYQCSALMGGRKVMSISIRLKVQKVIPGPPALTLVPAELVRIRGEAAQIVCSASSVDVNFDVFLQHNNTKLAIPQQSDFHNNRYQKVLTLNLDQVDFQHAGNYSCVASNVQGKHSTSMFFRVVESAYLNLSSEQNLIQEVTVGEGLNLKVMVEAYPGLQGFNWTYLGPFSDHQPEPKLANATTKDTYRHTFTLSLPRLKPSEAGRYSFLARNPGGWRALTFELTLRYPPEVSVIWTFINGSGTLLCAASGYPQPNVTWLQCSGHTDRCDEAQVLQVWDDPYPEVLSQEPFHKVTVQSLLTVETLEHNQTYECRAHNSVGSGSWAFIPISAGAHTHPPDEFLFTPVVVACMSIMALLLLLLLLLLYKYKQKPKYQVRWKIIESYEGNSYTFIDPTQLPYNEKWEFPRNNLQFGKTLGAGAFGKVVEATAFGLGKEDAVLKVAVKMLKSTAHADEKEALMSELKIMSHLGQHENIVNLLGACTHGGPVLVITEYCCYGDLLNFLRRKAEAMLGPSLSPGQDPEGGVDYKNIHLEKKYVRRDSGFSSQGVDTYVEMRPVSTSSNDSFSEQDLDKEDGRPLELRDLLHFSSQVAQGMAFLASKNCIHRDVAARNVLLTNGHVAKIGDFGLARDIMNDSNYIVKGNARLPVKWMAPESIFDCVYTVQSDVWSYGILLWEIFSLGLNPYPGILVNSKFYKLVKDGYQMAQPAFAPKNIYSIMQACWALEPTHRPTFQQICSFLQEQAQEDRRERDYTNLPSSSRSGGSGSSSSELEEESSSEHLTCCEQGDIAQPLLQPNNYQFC
Answer each item with its documented kinase still bound, per cent of control.
Give the quantity in %, number only.

Reported kinase still bound, per cent of control ( "N#Cc1cc(-c2ccnc(Nc3ccc(-n4cnc(-c5cccnc5)n4)cc3)n2)cc(N2CCOCC2)c1" ) = 14

What the record says about CC1=C(C(=O)Nc2cc3cn[nH]c3cc2F)C(c2ccc(C(F)(F)F)cc2)CC(=O)N1 (centres undefined) : kinase still bound, per cent of control is 68

Record "CCN1CCN(Cc2ccc(NC(=O)c3ccc(C)c(/C=C/c4cnc5[nH]ccc5c4OC)c3)cc2C(F)(F)F)CC1" . Reported kinase still bound, per cent of control: 0

"C=CC(=O)Nc1ccc(C(=O)c2sc(Nc3ccc(N4CCN(C)CC4)cc3OC)nc2N)cc1" has a reported kinase still bound, per cent of control of 58

kinase still bound, per cent of control recorded for this compound, "CCc1nc(-c2cccc(C)c2)c(-c2ccnc(NC(=O)c3ccccc3)c2)s1" , is 76

In plain terms, "N#C/C(=C1/Nc2ccccc2S1)c1ccnc(NCCc2cccnc2)n1" has a documented kinase still bound, per cent of control of 98

Lab book: kinase still bound, per cent of control of "CCOc1cc(N2CCC(O)CC2)ccc1Nc1ncc2c(n1)N(C)c1ccccc1C(=O)N2C" noted as 100

In plain terms, "COc1cc(N2CCC(C(N)=O)CC2)ccc1Nc1nc(N)c(Cl)c(Nc2ccccc2S(=O)(=O)C(C)C)n1" has a documented kinase still bound, per cent of control of 100

Entry "CC(=O)c1c(C)c2cnc(Nc3ccc(N4CCNCC4)cn3)nc2n(C2CCCC2)c1=O" ; kinase still bound, per cent of control = 50
